The reported numbers originate from patent USRE47150.

ASSAY SYSTEM: T1, mouse tissue factor pathway inhibitor (TFPI) (mouse, UniProt O54819 29-289, limits assumed)
T1 construct: bought; also called mTFPI; murine TFPI
T1 sequence (looked up): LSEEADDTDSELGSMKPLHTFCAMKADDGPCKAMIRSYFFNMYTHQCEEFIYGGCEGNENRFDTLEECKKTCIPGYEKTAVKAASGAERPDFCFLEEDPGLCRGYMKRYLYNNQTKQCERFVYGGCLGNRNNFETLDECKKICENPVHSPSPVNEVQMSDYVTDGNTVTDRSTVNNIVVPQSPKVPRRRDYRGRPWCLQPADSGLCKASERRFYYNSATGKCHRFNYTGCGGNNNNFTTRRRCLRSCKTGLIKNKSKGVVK
EXPERIMENT SUMMARY: competitive ELISA
VALUE TYPE: variant/HC_K99L (ratio)

BINDER	VALUE TYPE	UNIT ABBREV	RESULT
2A8 HC I51D+S54F+K99L/LC D91W (Fab, V domains shown) VH: QVQLVESGGGLVQPGGSLRLSCAASGFTFRSYGMSWVRQAPGKGLEWVSSDRGFSSSTYYADSVKGRFTISRDNSKNTLYLQMNSLRAEDTAVYYCARLYRYWFDYWGQGTLVTVSS VL: DIELTQPPSVSVAPGQTARISCSGDNLRNYYAHWYQQKPGQAPVVVIYYDNNRPSGIPERFSGSNSGNTATLTISGTQAEDEADYYCQSWWDGVPVFGGGTKLTVLG	variant/HC_K99L	ratio	5.3
2A8 HC S31V+I51D+S55R/LC Y48F+N51V+D91L (Fab, V domains shown) VH: QVQLVESGGGLVQPGGSLRLSCAASGFTFRVYGMSWVRQAPGKGLEWVSSDRGSRSSTYYADSVKGRFTISRDNSKNTLYLQMNSLRAEDTAVYYCARKYRYWFDYWGQGTLVTVSS VL: DIELTQPPSVSVAPGQTARISCSGDNLRNYYAHWYQQKPGQAPVVVIFYDVNRPSGIPERFSGSNSGNTATLTISGTQAEDEADYYCQSWLDGVPVFGGGTKLTVLG	variant/HC_K99L	ratio	6.5
2A8 HC S35D+S55R+K99L/LC R28P+Y48F+N51V+D91W (Fab, V domains shown) VH: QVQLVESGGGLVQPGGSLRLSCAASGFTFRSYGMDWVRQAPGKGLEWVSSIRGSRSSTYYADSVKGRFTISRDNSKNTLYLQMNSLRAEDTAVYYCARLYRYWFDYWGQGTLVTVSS VL: DIELTQPPSVSVAPGQTARISCSGDNLPNYYAHWYQQKPGQAPVVVIFYDVNRPSGIPERFSGSNSGNTATLTISGTQAEDEADYYCQSWWDGVPVFGGGTKLTVLG	variant/HC_K99L	ratio	23.2
